Hey, just so you know, these numbers are from the supplement of paper PMC12669797.

tested on: TOV-21G; experiment: cell viability relative to DMSO control (MTS) (fraction of DMSO control); higher = more viable cells / less growth inhibition; details: 10 µM; 48 h
assay_endpoint: cell viability
Please respond with just the number, no unit label.

See these solved cases before continuing.
N#C/C(=C\c1ccc2oc(=O)[nH]c2c1)C(=O)c1ccc(O)c(O)c1; 1.13
C/C=C/C/C=C/CCC(=O)[C@H]1O[C@H]1C(N)=O; 1.03
CC(ONC(=O)c1cc(C(F)(F)F)cc(C(F)(F)F)c1)C(=O)Nc1ccc(Cl)cc1 (centres undefined); 1.21
Cc1cccc(-c2nn(C(=S)Nc3ccccc3)cc2-c2ccnc3ccccc23)n1; 1.01
N#CC[C@H](C1CCCC1)n1cc(-c2ncnc3[nH]ccc23)cn1; 0.776
O=C(Nc1cccc2cccnc12)c1ccc(N2C(=O)[C@@H]3[C@H](C2=O)[C@@H]2C=C[C@H]3C2)cc1 [IWR-1-endo]; 0.582
C[C@]1(c2nc3c(C(N)=O)cccc3[nH]2)CCCN1; 0.892
COc1c(C=O)c(O)cc2c1C(=O)c1ccccc1C2=O; 0.974

Then this compound:
In: Item C[C@@H]1C[C@H]2[C@@H]3CCC4=CC(=O)C=C[C@]4(C)[C@@]3(F)[C@@H](O)C[C@]2(C)[C@@]1(O)C(=O)CO has what recorded cell viability?
Out: 1.29
